target: MRGPRX4 (Homo sapiens); test: MRGPRX4 activation, Fluo-8 Ca2+ FLIPR assay in HEK293T cells stably expressing MRGPRX4; format: cell-based; design: key: fluorescence change dF/F0; conditions: E3-9, Conc. (Log[M]) −7.8
reported-endpoint: MRGPRX4 activation, Average

{"columns": ["smiles-input", "system-tested", "value-measured"],
 "data": [
  ["CC[C@H]1[C@@H](O)[C@@H]2[C@H](CC[C@]3(C)[C@@H]([C@H](C)CCNC(=O)NS(=O)(=O)c4cccs4)CC[C@@H]23)[C@@]2(C)CCC(F)(F)C[C@@H]12", "MRGPRX4 (Homo sapiens)", 0.010]
]}

Requested read-out: MRGPRX4 activation, Average. Entry: "CC[C@H]1[C@@H](O)[C@@H]2[C@H](CC[C@]3(C)[C@@H]([C@H](C)CCNC(=O)NS(=O)(=O)c4cc(F)ccc4F)CC[C@@H]23)[C@@]2(C)CCC(F)(F)C[C@@H]12"
0.018

// returns reported MRGPRX4 activation, Average for input "CC[C@H]1[C@@H](O)[C@@H]2[C@H](CC[C@]3(C)[C@@H]([C@H](C)CCNC(=S)NS(=O)(=O)c4cccs4)CC[C@@H]23)[C@@]2(C)CCC(F)(F)C[C@@H]12"
0.018

====

molecular target: MRGPRX4 (Homo sapiens, UniProt Q96LA9); test: MRGPRX4 activation, Fluo-8 Ca2+ FLIPR assay in HEK293T cells stably expressing MRGPRX4; type: cell-based; parameters: key: fluorescence change dF/F0; conditions: E3-9, Conc. (Log[M]) −4.0
Sequence (Q96LA9 whole entry): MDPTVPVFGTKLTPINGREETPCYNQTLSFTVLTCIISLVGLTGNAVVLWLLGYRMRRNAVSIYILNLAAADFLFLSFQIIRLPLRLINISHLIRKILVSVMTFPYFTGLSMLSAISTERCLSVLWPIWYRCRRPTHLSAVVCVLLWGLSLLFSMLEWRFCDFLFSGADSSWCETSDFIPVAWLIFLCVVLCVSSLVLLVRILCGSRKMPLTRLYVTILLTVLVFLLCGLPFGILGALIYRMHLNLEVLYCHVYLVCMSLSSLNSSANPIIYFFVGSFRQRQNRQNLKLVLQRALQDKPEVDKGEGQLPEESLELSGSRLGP
Label y for high-side MRGPRX4 activation, Average (at or above 0.03) and n for low-side MRGPRX4 activation, Average (below it).

{"columns": ["smiles-input", "answer-label"],
 "data": [
  ["CC[C@H]1[C@@H](O)[C@@H]2[C@H](CC[C@]3(C)[C@@H]([C@H](C)CCNC(=O)NS(=O)(=O)c4ccc(C(C)(C)CF)cc4)CC[C@@H]23)[C@@]2(C)CCC(F)(F)C[C@@H]12", "n"]
]}

Decide: MRGPRX4 activation, Average of "CC[C@H]1[C@@H](O)[C@@H]2[C@H](CC[C@]3(C)[C@@H]([C@H](C)CCNC(=S)NS(=O)(=O)c4cccs4)CC[C@@H]23)[C@@]2(C)CCC(F)(F)C[C@@H]12" >= 0.03?
n

// inclusive: MRGPRX4 activation, Average at least 0.03? input: "[2H]C1([2H])CC[C@@]2(C)[C@@H](C1)[C@@H](CC)[C@@H](O)[C@@H]1[C@@H]2CC[C@]2(C)[C@@H]([C@H](C)CCN=C=S)CC[C@@H]12"
y

Reported MRGPRX4 activation, Average reaches at least 0.03 for "CC[C@H]1[C@@H](O)[C@@H]2[C@H](CC[C@]3(C)[C@@H]([C@H](C)CCNS(=O)(=O)CC(C)C)CC[C@@H]23)[C@@]2(C)CCCC[C@@H]12" ?
n

====

target: human FXR (NR1H4) (Homo sapiens); test: Human FXR (NR1H4) agonist assessment, FXRE-NanoLuc reporter in HEK293T cells; type: cell-based; details: FXR activation, HEK293T FXRE-NanoLuc reporter, 24 hr
Sequence (Q96RI1 1-476 isoform Q96RI1-1): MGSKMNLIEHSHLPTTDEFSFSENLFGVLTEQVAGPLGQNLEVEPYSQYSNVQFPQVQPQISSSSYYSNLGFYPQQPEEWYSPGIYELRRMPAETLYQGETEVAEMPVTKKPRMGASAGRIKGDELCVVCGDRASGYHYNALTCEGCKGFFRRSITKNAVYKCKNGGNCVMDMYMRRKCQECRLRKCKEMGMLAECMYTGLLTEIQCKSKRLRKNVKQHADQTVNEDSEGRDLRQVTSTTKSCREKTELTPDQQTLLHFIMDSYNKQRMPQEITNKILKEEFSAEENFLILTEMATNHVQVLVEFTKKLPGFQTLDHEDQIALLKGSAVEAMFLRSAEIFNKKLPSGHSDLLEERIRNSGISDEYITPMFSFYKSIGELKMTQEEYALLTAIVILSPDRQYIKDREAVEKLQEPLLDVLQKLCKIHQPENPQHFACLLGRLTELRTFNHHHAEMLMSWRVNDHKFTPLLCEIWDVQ
reported-endpoint: Efficacy (maximum measured induction of NanoLuc, normalized to CDCA set as 100%)

These recorded examples may help you get a feel for the data.
{"columns": ["smiles-input", "value-measured"],
 "data": [
  ["CC[C@H]1[C@@H](O)[C@@H]2[C@H](CC[C@]3(C)[C@@H]([C@H](C)CCNC(=O)C(=O)NS(=O)(=O)c4cc(F)ccc4F)CC[C@@H]23)[C@@]2(C)CCCC[C@@H]12", "C (100%<efficacy <=300%)"],
  ["CC[C@H]1[C@@H](O)[C@@H]2[C@H](CC[C@]3(C)[C@@H]([C@H](C)CCNC(=O)NS(=O)(=O)c4cccs4)CC[C@@H]23)[C@@]2(C)CC[C@H](F)C[C@@H]12", "C (100%<efficacy <=300%)"],
  ["CC[C@H]1[C@@H](O)[C@@H]2[C@H](CC[C@]3(C)[C@@H]([C@H](C)CCOC(=O)NS(=O)(=O)c4ccc(N5CCCCC5)nc4)CC[C@@H]23)[C@@]2(C)CCCC[C@@H]12", "B (300%<efficacy <=400%)"],
  ["CC[C@H]1[C@@H](O)[C@@H]2[C@H](CC[C@]3(C)[C@@H]([C@H](C)CCN=C=S)CC[C@@H]23)[C@@]2(C)CCCC[C@@H]12", "C (100%<efficacy <=300%)"]
]}

Please give the measured Efficacy (maximum measured induction of NanoLuc, normalized to CDCA set as 100%) for this molecule: "CC[C@H]1[C@@H](O)[C@@H]2[C@H](CC[C@]3(C)[C@@H]([C@H](C)CCC(=O)O)CC[C@@H]23)[C@@]2(C)CCC(F)(F)C[C@@H]12"
C (100%<efficacy <=300%)

For the molecule "CC[C@H]1[C@@H](OC(=O)c2cccc(I)c2)[C@@H]2[C@H](CC[C@]3(C)C([C@H](C)CCC(=O)OC)=CC[C@@H]23)[C@@]2(C)CCCC[C@@H]12" , what Efficacy (maximum measured induction of NanoLuc, normalized to CDCA set as 100%) is on record?
C (100%<efficacy <=300%)

# Efficacy (maximum measured induction of NanoLuc, normalized to CDCA set as 100%) lookup, item "CC[C@H]1[C@@H](O)[C@@H]2[C@H](CC[C@]3(C)[C@@H]([C@H](C)CCNC(=O)NS(=O)(=O)c4cccc(Cl)c4)CC[C@@H]23)[C@@]2(C)CCCC[C@@H]12"
B (300%<efficacy <=400%)

This collection of values is drawn from patent US20260116910A1.
